All figures here come from patent US20260116991A1.

# TARGET OR TEST SYSTEM: T1, murine GPC3-his protein (Sino Biological, Cat. No. 50989-M08B) (murine, UniProt Q8CFZ4 25-558)
# T1 construct: Bought protein; also called murine GPC3 protein
# T1 sequence (Q8CFZ4 25-558 limits assumed): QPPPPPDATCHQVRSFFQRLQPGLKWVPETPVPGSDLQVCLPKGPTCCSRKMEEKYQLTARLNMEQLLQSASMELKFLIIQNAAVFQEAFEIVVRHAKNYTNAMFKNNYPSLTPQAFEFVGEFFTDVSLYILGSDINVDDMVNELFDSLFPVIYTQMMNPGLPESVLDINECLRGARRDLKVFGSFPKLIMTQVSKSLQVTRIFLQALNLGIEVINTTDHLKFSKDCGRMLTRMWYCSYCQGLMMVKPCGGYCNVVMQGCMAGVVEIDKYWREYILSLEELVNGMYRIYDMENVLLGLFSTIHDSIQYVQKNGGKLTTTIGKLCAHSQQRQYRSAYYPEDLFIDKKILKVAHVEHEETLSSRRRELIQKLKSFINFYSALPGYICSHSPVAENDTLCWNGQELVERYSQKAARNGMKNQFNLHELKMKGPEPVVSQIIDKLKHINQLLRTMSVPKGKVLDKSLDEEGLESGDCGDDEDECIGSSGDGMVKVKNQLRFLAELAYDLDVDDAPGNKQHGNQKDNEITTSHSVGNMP
# ASSAY TEXT: ELISA, coated murine GPC3-His;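 also: antigen coated on plates at 1 µg/mL, test antibody bound for 2 h at 37 °C, detected with HRP-conjugated secondary antibody and TMB substrate after acid stop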
VALUE TYPE: OD450 at 0.001 nM antibody (OD450 nm)
State just the number; it will be interpreted in OD450 nm.

Worked cases, OD450 at 0.001 nM antibody given:
- BINDER: "F1.118.4 human-murine chimeric antibody (antibody, human IgG1, kappa, V domains shown) VH: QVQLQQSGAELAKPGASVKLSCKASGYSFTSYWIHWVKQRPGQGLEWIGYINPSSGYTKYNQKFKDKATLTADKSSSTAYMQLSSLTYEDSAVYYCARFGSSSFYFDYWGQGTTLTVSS VL: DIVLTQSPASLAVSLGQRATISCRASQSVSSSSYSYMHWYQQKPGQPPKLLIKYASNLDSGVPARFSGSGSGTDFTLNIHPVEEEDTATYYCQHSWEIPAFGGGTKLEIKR"
  OD450 at 0.001 nM antibody (OD450 nm): 0.05
- BINDER: "F3.54.12 human-murine chimeric antibody (antibody, human IgG1, kappa, V domains shown) VH: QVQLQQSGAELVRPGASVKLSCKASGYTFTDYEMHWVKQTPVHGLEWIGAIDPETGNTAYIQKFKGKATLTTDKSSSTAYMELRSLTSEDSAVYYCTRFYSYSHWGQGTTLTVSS VL: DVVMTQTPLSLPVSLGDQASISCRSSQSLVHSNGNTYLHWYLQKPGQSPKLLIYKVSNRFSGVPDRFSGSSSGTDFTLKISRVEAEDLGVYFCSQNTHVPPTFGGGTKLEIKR"
  OD450 at 0.001 nM antibody (OD450 nm): 0.05
- BINDER: "F2.152.3 human-murine chimeric antibody (antibody, human IgG1, kappa, V domains shown) VH: EVQLQQSGPELVKPGASVKMSCKASGYTFTDYYMTWVKQSHGKSLEWIGRVNPRNGDTTYNQKFEGRATLTLDKSLSTAFMQLNSLTSEDSAVYYCINSKGHFDYWGQGTTLTVSS VL: DVLMTQTPLSLPVSLGDQASISCRSSQSIVHSNGNTYLEWFLQKPGQSPKSLIYKVSNRFSGVPDRFSGSGSGTDFTLKISRVEAEDLGVYYCFQGSHVPPTFGAGTKLELKR"
  OD450 at 0.001 nM antibody (OD450 nm): 0.12
- BINDER: "F1.92.17 human-murine chimeric antibody (antibody, human IgG1, kappa, V domains shown) VH: EVQLQQSGPELVKPGASVKMSCKASGYTFTDYNMHWVRQSHGKSLEWIGYINPNNGDTIYNQNFKGKATLTVNKSSSTAYMELRSLTSEDSAVYYCSRTITYYYSMDYWGPGTSVTVSS VL: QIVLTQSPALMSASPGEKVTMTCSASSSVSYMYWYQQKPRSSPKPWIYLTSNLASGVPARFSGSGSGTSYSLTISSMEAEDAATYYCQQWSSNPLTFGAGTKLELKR"
  OD450 at 0.001 nM antibody (OD450 nm): 0.05

Now turn to the next binder.
Task item: Reported OD450 at 0.001 nM antibody for F1.9.19 human-murine chimeric antibody (antibody, human IgG1, kappa, V domains shown) VH: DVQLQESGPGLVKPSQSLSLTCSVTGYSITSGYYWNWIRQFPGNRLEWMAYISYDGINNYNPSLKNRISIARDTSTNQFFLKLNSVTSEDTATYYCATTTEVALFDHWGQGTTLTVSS VL: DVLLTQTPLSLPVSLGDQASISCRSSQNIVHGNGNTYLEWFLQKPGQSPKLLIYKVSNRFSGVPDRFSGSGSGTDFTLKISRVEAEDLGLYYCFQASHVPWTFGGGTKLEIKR : what is it?
Reply: 0.04
